Where do these numbers come from? They come from PubChem BioAssay (NCI).

- Test system: OVCAR-3 ovarian
- Test: NCI tumour cell line growth inhibition, 48 h
Entries are sorted into classes by TGI as follows: bucket 1 (below 7 µM), bucket 2 (7 µM to below 20 µM), bucket 3 (20 µM or more)

Textbook exercise: identify the category of the molecule given here, CCCCCCOP(=O)(OCCCCCC)OC(C(=O)OC)C(F)(F)F (stereo unspecified) , according to its measured value.
bucket 3

Textbook exercise: identify the category of the molecule given here, Cc1ccc(S(=O)(=O)N/N=C2\C3CC4CC(C3)C2C4)cc1 (stereo unspecified) , according to its measured value.
bucket 3

Textbook exercise: identify the category of the molecule given here, "COC(=O)n1c(C[P+](c2ccccc2)(c2ccccc2)c2ccccc2)cc2ccccc21" , according to its measured value.
bucket 2

Textbook exercise: identify the category of the molecule given here, "CC(C)(CO)N=Cc1ccccc1[O-].CC(C)(CO)N=Cc1ccccc1[O-].[Co+2]" , according to its measured value.
bucket 3

Textbook exercise: identify the category of the molecule given here, "CC1(C)[C@@H]2CC[C@@]1(C)[C@H](O)[C@@H]2SCc1ccccc1" , according to its measured value.
bucket 3

Textbook exercise: identify the category of the molecule given here, "COc1ccc(NC(=O)c2sc3nc4c(cc3c2N)CCCC4)cc1" , according to its measured value.
bucket 1

Textbook exercise: identify the category of the molecule given here, "COc1cc(-n2cc(-c3cc(O)c(C/C=C(\C)CCC=C(C)C)c(O)c3)nn2)cc2c1O[C@]1(C)CC[C@@H](O)C(C)(C)[C@H]1C2" , according to its measured value.
bucket 2

Textbook exercise: identify the category of the molecule given here, "O=C(O)Cn1ccnc1[N+](=O)[O-]" , according to its measured value.
bucket 3

Textbook exercise: identify the category of the molecule given here, "O=C(O)[C@@H]1CCCC[C@@H]1C(=O)N(C1CCCCC1)C1CCCCC1" , according to its measured value.
bucket 3

Textbook exercise: identify the category of the molecule given here, "Cn1cnc([N+](=O)[O-])c1Sc1nc(N)nc2nc[nH]c12" , according to its measured value.
bucket 3

Textbook exercise: identify the category of the molecule given here, "O=C(Nc1cc(S(=O)(=O)c2ccc(Cl)cc2)ccc1Cl)c1cc(I)cc(I)c1O" , according to its measured value.
bucket 3

Textbook exercise: identify the category of the molecule given here, "C=CCOC(=O)CCCCCCCCCCCCCCCOC(=O)C1=C(CCC[C@@H](C)O[Si](C)(C)C(C)(C)C)NC(=O)N2[C@H](CC3(CC/C=C\[C@H](CC)O[Si](C(C)C)(C(C)C)C(C)C)OCCO3)CC[C@H]12" , according to its measured value.
bucket 3

Textbook exercise: identify the category of the molecule given here, "O=C1CC2(CCNCC2)C(=O)N1N1CCOCC1" , according to its measured value.
bucket 3

Textbook exercise: identify the category of the molecule given here, "Cc1cc(=O)oc2cc(OCCn3c(C)nn(-c4ccc(Cl)cc4)c3=O)ccc12" , according to its measured value.
bucket 2

Textbook exercise: identify the category of the molecule given here, "CC[C@@]1(O)C(=O)OCc2c1cc1n(c2=O)Cc2cc3c(N)cccc3nc2-1" , according to its measured value.
bucket 1

Textbook exercise: identify the category of the molecule given here, "O=C(/C=C/c1ccco1)c1cccc(C(=O)/C=C/c2ccco2)n1" , according to its measured value.
bucket 3

Textbook exercise: identify the category of the molecule given here, "COc1ccc2[nH]c3c(=O)[nH]ncc3c2c1" , according to its measured value.
bucket 3

Textbook exercise: identify the category of the molecule given here, "C1=C2CNCC3=Cc4ccc5ccccc5c4OC23Oc2c1ccc1ccccc21" , according to its measured value.
bucket 1

Textbook exercise: identify the category of the molecule given here, Cc1cc(=O)[nH]c(NNC(C#N)c2ccc([N+](=O)[O-])cc2)n1 (stereo unspecified) , according to its measured value.
bucket 3
